assay_context: human gut metagenome, 24 h, 2 µM; further: call rule not given here

compound: O=C1[C@H](CC[C@H](O)c2ccc(F)cc2)[C@@H](c2ccc(O)cc2)N1c1ccc(F)cc1
Bacterial Biotransformation: Compound NOT metabolized
--
compound: CN(C)CC(c1ccc(O)cc1)C1(O)CCCCC1.O=C(O)CCC(=O)O (centres undefined) [DESVENLAFAXINE SUCCINATE]
Bacterial Biotransformation: Compound NOT metabolized
--
compound: CC(O)(CS(=O)(=O)c1ccc(F)cc1)C(=O)Nc1ccc(C#N)c(C(F)(F)F)c1 (centres undefined) [BICALUTAMIDE]
Bacterial Biotransformation: Compound NOT metabolized

====

experiment_description: The drug is tested on Z-019 corresponding to rat gut metagenome with ENA study accession number: PRJEB37062 and ENA sample accession number: ERS12561818 for biotransformation under anaerobic condition. The drug concentrations were measured over 9 timepoints collected between 0 and 24 hours of incubation by liquid-chromatography-coupled mass spectrometry (LC–MS)
assay_context: 2 µM
measured_quantity: Bacterial Biotransformation

compound: COc1cc2nc(N3CCN(C(=O)c4ccco4)CC3)nc(N)c2cc1OC
measured_quantity: Bacterial Biotransformation
measurement: Compound NOT metabolized
//
compound: CC[C@@H](CO)NC(=O)[C@@H]1C=C2c3cccc4c3c(cn4C)C[C@H]2N(C)C1.O=C(O)/C=C\C(=O)O [METHYSERGIDE MALEATE]
measured_quantity: Bacterial Biotransformation
measurement: Compound NOT metabolized
//
compound: CCCCc1nc(Cl)c(CO)n1Cc1ccc(-c2ccccc2-c2nn[nH]n2)cc1
measured_quantity: Bacterial Biotransformation
measurement: Compound NOT metabolized

====

experiment_description: The drug is tested on Z-006 corresponding to mouse gut metagenome with ENA study accession number: PRJEB37062 and ENA sample accession number: ERS12561806 for biotransformation under anaerobic condition. The drug concentrations were measured over 9 timepoints collected between 0 and 24 hours of incubation by liquid-chromatography-coupled mass spectrometry (LC–MS)
assay_context: 2 µM

compound: CN1C(=O)CCS(=O)(=O)C1c1ccc(Cl)cc1 (stereo not drawn)
Bacterial Biotransformation: Compound NOT metabolized
--
compound: CC(C)(Oc1ccc(CCNC(=O)c2ccc(Cl)cc2)cc1)C(=O)O [BEZAFIBRATE]
Bacterial Biotransformation: Compound NOT metabolized
--
compound: Cc1nc2n(c(=O)c1CCN1CCC(c3noc4cc(F)ccc34)CC1)CCCC2
Bacterial Biotransformation: Compound metabolized
--
compound: COC(=O)Nc1nc2ccc(C(=O)c3ccccc3)cc2[nH]1
Bacterial Biotransformation: Compound metabolized
--
compound: CC(C)(C(=O)O)c1ccc(C(O)CCCN2CCC(C(O)(c3ccccc3)c3ccccc3)CC2)cc1 (stereo not drawn) [FEXOFENADINE]
Bacterial Biotransformation: Compound NOT metabolized
--
compound: CN(C)C(=O)C(CCN1CCC(O)(c2ccc(Cl)cc2)CC1)(c1ccccc1)c1ccccc1 [LOPERAMIDE]
Bacterial Biotransformation: Compound metabolized
--
compound: CCN(CC)CCNC(=O)c1cc(Cl)c(N)cc1OC [METOCLOPRAMIDE]
Bacterial Biotransformation: Compound NOT metabolized
--
compound: CC(C(=O)O)c1ccc2c(c1)Cc1cccnc1O2 (stereo not drawn)
Bacterial Biotransformation: Compound metabolized
--
compound: CC(C)c1c(C(=O)Nc2ccccc2)c(-c2ccccc2)c(-c2ccc(F)cc2)n1CC[C@@H](O)C[C@@H](O)CC(=O)O
Bacterial Biotransformation: Compound NOT metabolized
--
compound: CS(=O)(=O)O.OC(CCN1CCCCC1)(c1ccccc1)c1ccccc1 [PRIDINOL METHANESULFONATE]
Bacterial Biotransformation: Compound NOT metabolized
--
compound: Cc1ccc(-c2cc(C(F)(F)F)nn2-c2ccc(S(N)(=O)=O)cc2)cc1
Bacterial Biotransformation: Compound NOT metabolized
--
compound: CCOC(=O)[C@H](CCc1ccccc1)N[C@H]1CCc2ccccc2N(CC(=O)O)C1=O
Bacterial Biotransformation: Compound metabolized
--
compound: CC(C)N(CCC(C(N)=O)(c1ccccc1)c1ccccn1)C(C)C.O=P(O)(O)O (stereo not drawn) [DISOPYRAMIDE PHOSPHATE]
Bacterial Biotransformation: Compound NOT metabolized
--
compound: CN1CC(=O)N2[C@H](c3ccc4c(c3)OCO4)c3[nH]c4ccccc4c3C[C@@H]2C1=O
Bacterial Biotransformation: Compound NOT metabolized
--
compound: CCC(=O)NCC[C@@H]1CCc2ccc3c(c21)CCO3
Bacterial Biotransformation: Compound metabolized
--
compound: COc1c2occc2cc2ccc(=O)oc12
Bacterial Biotransformation: Compound metabolized
--
compound: C#C[C@]1(O)CC[C@H]2[C@@H]3CCC4=Cc5oncc5C[C@]4(C)[C@H]3CC[C@@]21C
Bacterial Biotransformation: Compound metabolized
--
compound: CN1CCN(C(=O)O[C@H]2c3nccnc3C(=O)N2c2ccc(Cl)cn2)CC1
Bacterial Biotransformation: Compound NOT metabolized
--
compound: CCOC(=O)[C@H](CCc1ccccc1)N[C@@H](C)C(=O)N1[C@H](C(=O)O)C[C@@H]2CCC[C@@H]21
Bacterial Biotransformation: Compound NOT metabolized
--
compound: Cc1ccccc1N1C(=O)c2cc(S(N)(=O)=O)c(Cl)cc2NC1C (stereo not drawn)
Bacterial Biotransformation: Compound NOT metabolized
--
compound: COc1ccc2c3c1O[C@H]1C[C@@H](O)C=C[C@@]31CCN(C)C2
Bacterial Biotransformation: Compound NOT metabolized
--
compound: CN1C[C@H](C(=O)N[C@]2(C)O[C@@]3(O)[C@@H]4CCCN4C(=O)[C@H](Cc4ccccc4)N3C2=O)C=C2c3cccc4[nH]cc(c34)C[C@H]21.CN1C[C@H](C(=O)N[C@]2(C)O[C@@]3(O)[C@@H]4CCCN4C(=O)[C@H](Cc4ccccc4)N3C2=O)C=C2c3cccc4[nH]cc(c34)C[C@H]21.O=C(O)C(O)C(O)C(=O)O [ERGOTAMINE TARTRATE]
Bacterial Biotransformation: Compound NOT metabolized
--
compound: CCN1CCCC1CNC(=O)c1cc(S(N)(=O)=O)ccc1OC (stereo not drawn) [SULPIRIDE]
Bacterial Biotransformation: Compound NOT metabolized
--
compound: O=C(O)COCCN1CCN(C(c2ccccc2)c2ccc(Cl)cc2)CC1 (stereo not drawn)
Bacterial Biotransformation: Compound NOT metabolized
--
compound: CNS(=O)(=O)Cc1ccc2[nH]cc(CCN(C)C)c2c1.O=C(O)CCC(=O)O [SUMATRIPTAN SUCCINATE]
Bacterial Biotransformation: Compound NOT metabolized
--
compound: CCOC(=O)[C@H](CCc1ccccc1)N[C@@H](C)C(=O)N1[C@H](C(=O)O)C[C@H]2CCCC[C@@H]21
Bacterial Biotransformation: Compound NOT metabolized
--
compound: CC(C)(C)NC[C@H](O)COc1ccccc1C1CCCC1.CC(C)(C)NC[C@H](O)COc1ccccc1C1CCCC1.O=S(=O)(O)O [PENBUTOLOL SULFATE]
Bacterial Biotransformation: Compound NOT metabolized
--
compound: COc1ccccc1OCC(O)COC(N)=O (stereo not drawn)
Bacterial Biotransformation: Compound NOT metabolized
--
compound: Cc1ccc(/C(=C\CN2CCCC2)c2ccccn2)cc1
Bacterial Biotransformation: Compound NOT metabolized
--
compound: CN1CCOC(c2ccccc2)c2ccccc2C1 (stereo not drawn)
Bacterial Biotransformation: Compound NOT metabolized
--
compound: O=C1[C@H](CC[C@H](O)c2ccc(F)cc2)[C@@H](c2ccc(O)cc2)N1c1ccc(F)cc1
Bacterial Biotransformation: Compound NOT metabolized
--
compound: O=C(Nc1ccccc1)OCC(CN1CCCCC1)OC(=O)Nc1ccccc1 (stereo not drawn)
Bacterial Biotransformation: Compound NOT metabolized
--
compound: OC(CCN1CCCCC1)(c1ccccc1)C1CCCCC1 (stereo not drawn)
Bacterial Biotransformation: Compound NOT metabolized

====

experiment_description: The drug is tested on WLS-350 corresponding to human gut metagenome with ENA study accession number: PRJEB37062 and ENA sample accession number: ERS12561789 for biotransformation under anaerobic condition. The drug concentrations were measured over 9 timepoints collected between 0 and 24 hours of incubation by liquid-chromatography-coupled mass spectrometry (LC–MS)
assay_context: 2 µM

compound: Cc1ccccc1N1C(=O)c2cc(S(N)(=O)=O)c(Cl)cc2NC1C (centres undefined)
Bacterial Biotransformation: Compound metabolized
--
compound: CCN(CC)CCOCCOC(=O)C1(c2ccccc2)CCCC1.O=C(O)CC(O)(CC(=O)O)C(=O)O [CARBETAPENTANE CITRATE]
Bacterial Biotransformation: Compound NOT metabolized
--
compound: NC(CO)(CO)CO.O=C(c1ccccc1)c1ccc2n1CCC2C(=O)O (centres undefined)
Bacterial Biotransformation: Compound metabolized
--
compound: OCCOCCN1CCN(C2=Nc3ccccc3Sc3ccccc32)CC1
Bacterial Biotransformation: Compound NOT metabolized
--
compound: O=c1[nH]c2ccccc2n1C1CCN(CCCC(c2ccc(F)cc2)c2ccc(F)cc2)CC1 [PIMOZIDE]
Bacterial Biotransformation: Compound metabolized
--
compound: CN(C)C(=O)C(CCN1CCC(O)(c2ccc(Cl)cc2)CC1)(c1ccccc1)c1ccccc1 [LOPERAMIDE]
Bacterial Biotransformation: Compound metabolized
--
compound: O=c1[nH]c2ccccc2n1CCCN1CCC(n2c(=O)[nH]c3cc(Cl)ccc32)CC1
Bacterial Biotransformation: Compound NOT metabolized
--
compound: CN1C(C(=O)Nc2ccccn2)=C(O)c2sccc2S1(=O)=O
Bacterial Biotransformation: Compound metabolized
--
compound: COC(=O)C1=C(C)NC(C)=C(C(=O)OC(C)C)C1c1cccc2nonc12 (centres undefined)
Bacterial Biotransformation: Compound metabolized
--
compound: CCOc1ccc(NC(C)=O)cc1
Bacterial Biotransformation: Compound NOT metabolized
--
compound: CCN(CC)C(C)CN1c2ccccc2Sc2ccccc21 (centres undefined)
Bacterial Biotransformation: Compound metabolized
--
compound: CN1C(=O)CCS(=O)(=O)C1c1ccc(Cl)cc1 (centres undefined)
Bacterial Biotransformation: Compound NOT metabolized
--
compound: CCN(CC)CCNC(C(=O)OCCC(C)C)c1ccccc1.Cl.Cl (centres undefined)
Bacterial Biotransformation: Compound metabolized
--
compound: CC(=O)CC(c1ccccc1)c1c(O)c2ccccc2oc1=O (centres undefined)
Bacterial Biotransformation: Compound metabolized
--
compound: COc1ccccc1N1CCN(CC(O)COc2cccc3ccccc23)CC1 (centres undefined)
Bacterial Biotransformation: Compound NOT metabolized
--
compound: CCCCC1=NC2(CCCC2)C(=O)N1Cc1ccc(-c2ccccc2-c2nnn[nH]2)cc1
Bacterial Biotransformation: Compound metabolized
--
compound: COc1cc2nc(N3CCN(C(=O)c4ccco4)CC3)nc(N)c2cc1OC
Bacterial Biotransformation: Compound NOT metabolized
--
compound: CCc1nc(N)nc(N)c1-c1ccc(Cl)cc1
Bacterial Biotransformation: Compound NOT metabolized
--
compound: Cc1cn([C@H]2C[C@H](N=[N+]=[N-])[C@@H](CO)O2)c(=O)[nH]c1=O
Bacterial Biotransformation: Compound NOT metabolized
